Taken from PubChem BioAssay AID2060508.

# viability, T/C listing for each entry below
System: 454973-116-R2-J3-PDC spheroids, viability, % test/control;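 note: spheroids exposed to compounds for seven days; 100% = DMSO vehicle control viability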
Assay: Anticancer human tumor 454973-116-R2-J3-PDC patient-derived pancreatic carcinoma cell line growth inhibition [GQUAD]
Conditions: second compound 0.316 µM; first compound 0.316 µM; stronger effect = lower value; spheroids with HUVEC and MSC
Provide only the numeric value, understood in %.

Example cases with answers are listed next.
COMPOUND	MEASURED_METRIC	READING_UNIT	REPORTED_MEASUREMENT
CC(C)n1c(=O)n(C)c2cnc3cc(F)c(-c4ccc(OCCCN5CCCCC5)nc4)cc3c21 + Cc1[nH]c2ccc(F)cc2c1-c1nc2c3cccnc3c3ncccc3c2[nH]1	viability, T/C	%	111
CCCS(=O)(=O)Nc1ccc(F)c(C(=O)c2c[nH]c3ncc(-c4ccc(Cl)cc4)cc23)c1F + CN(C)c1ccc(Nc2c3ccc(NC(=O)CCN4CCCC4)cc3nc3cc(NC(=O)CCN4CCCC4)ccc23)cc1	viability, T/C	%	108
Cc1cccc(N(C)C(=O)C2C(O)CCN2c2nc(C)cc(C(F)(F)F)c2C#N)c1 (stereo not given) + Cc1[nH]c2ccc(F)cc2c1-c1nc2c3cccnc3c3ncccc3c2[nH]1	viability, T/C	%	109
CC1COCCN1c1cc(C2(O)CC3CCC(C2)O3)c2cnn(-c3ccn[nH]3)c2n1 (stereo not given) + Cc1[nH]c2ccc(F)cc2c1-c1nc2c3cccnc3c3ncccc3c2[nH]1	viability, T/C	%	27.7

// below: viability, T/C requested for another compound
Inquiry: Quick check: viability, T/C of COc1cc(C2c3cc4c(cc3C(OC3OC5COC(C)OC5C(O)C3O)C3COC(=O)C23)OCO4)cc(OC)c1O (stereo not given) + Cc1[nH]c2ccc(F)cc2c1-c1nc2c3cccnc3c3ncccc3c2[nH]1 ?
Reply text: 83.7
